Task for the reader: assign each of the following compounds its reported Minimum inhibitory concentration (MIC) C.a.
tested on: Candida albicans; assay: Microtiter plate dilution MIC, C. albicans; assay type: cell-based; conditions: ATCC 90028, malt extract broth, 24 h, 100% inhibition

| compound | result |
| --- | --- |
| C=C(C(=O)O)[C@@H]1CC[C@@]2(C)CC[C@@H](O)C(=C)C2C1 (stereo partly drawn) [Viscic acid] | >250 µg/mL |
| C[C@@H]1[C@H](O)[C@@H](C)/C=C/C=C/CC/C=C/C=C/C=C/C=C/C(O[C@H]2O[C@H](C)[C@@H](O)[C@H](N)[C@@H]2O)CC2O[C@](O)(CC(O)C(O)CCC(O)CC(O)CC(O)CC(=O)O[C@H]1C)CC(O)C2C(=O)O (stereo partly drawn) [Nystatin, reference compound] | 25 µg/mL |

Kindly review the next compound as well.
INPUT: Consider the compound CC[C@H](CC[C@@H](C)[C@H]1CC[C@H]2[C@@H]3CC=C4C[C@@H](O[C@@H]5O[C@H](CO)[C@@H](O)[C@H](O)[C@H]5O)CC[C@]4(C)[C@H]3CC[C@]12C)C(C)C [β-Sitosteryl glucoside] and give its measured Minimum inhibitory concentration (MIC) C.a.
OUTPUT: >250 µg/mL
